Taken from ChEMBL document CHEMBL4028832.

Listed below: IC50 values for each entry.
- Tested on: DU-145
- ASSAY_INFO: Cytotoxicity against human DU145 cells after 48 hrs by MTT assay
- Format: functional, cell-based
- CONDITIONS_USED: DU-145, 48 h
# output: bare number, implied unit nM

// below: answered molecules
O=c1[nH]cc(F)c(=O)[nH]1 | 2180
COc1cc2cc(Cn3cc(COc4ccc5c(c4)OCO5)nn3)c3cc(OC)c(OC)cc3c2cc1OC | 16700
COc1cc2cc(Cn3cc(CN4C(=O)c5cccc6cccc(c56)C4=O)nn3)c3cc(OC)c(OC)cc3c2cc1OC | 1500

Now let's try a different one.
IC50 for COc1cc2cc(Cn3cc(CN4C(=O)c5ccccc5C4=O)nn3)c3cc(OC)c(OC)cc3c2cc1OC ?
2600
